Tested on: CEM cells HIV-1 protection, formazan growth assay
protocol summary: NCI AIDS Antiviral Assay
cond: measured here: growth of uninfected CEM cells
pIC50: −log10 of the molar value.
measurement type: pIC50

| compound | endpoint result |
| --- | --- |
| Cc1nc2ccccc2c(=O)n1N1C2CCCC21 (stereo not given) | < 3.70 |
| OCC12C3C4C1C1C2C3C41CO (stereo not given) | < 2.82 |
| CC(CC(=O)c1ccccc1)C(Sc1ccccc1)(Sc1ccccc1)Sc1ccccc1 (stereo not given) | < 4.00 |
| C[C@]12CC[C@H]3[C@@H](CC=C4C[C@@H](O)CC[C@@]43C)[C@@H]1CC[C@@H]2c1cnc[nH]1 | 3.93 |
| CCC(C)(O)c1cn(-c2ccc(S(=O)(=O)O)cc2)nn1 (stereo not given) | < 3.38 |
| CC(=O)OC1C(COS(=O)(=O)O)OC(O[C@H]2CC[C@@]3(C)C(=CC[C@@H]4C3CC[C@@]3(C)C4CC[C@@H]3C(C)=O)C2)C(OC(C)=O)C1OC(C)=O (stereo not given in full) | < 4.50 |
| Cc1cn(CC2=NCCN2)c(=O)[nH]c1=O | < 3.70 |
| CC(C)OC1=C(CC2(C)OCCO2)C(=O)C12OCCO2 | < 3.70 |
| COC(=O)n1c(=O)n(-c2ccccc2)c(=O)n1C(=O)OC | 3.71 |

Record for CC1C2Cc3ccc(O)cc3C1(C)CCN2CC1CC1 (stereo not given) under target or system CEM cells HIV-1 protection, formazan growth assay: pIC50 reported as < 3.70

---

Tested on: CEM cells HIV-1 protection, formazan growth assay
protocol summary: NCI AIDS Antiviral Assay
measurement type: EC50

| molecule | EC50 |
| --- | --- |
| CCCCS(=O)(=O)CCC(N)C(=O)O (stereo unspecified) | > 100 µM |

Value of EC50 reported for the molecule COc1ccc(C2C(Cl)C(=O)N2NC(=O)c2ccc(NC(C)=O)cc2)cc1 (stereo unspecified) is > 200 µM

Value of EC50 reported for the molecule Clc1cc(Cl)c(OCC#CI)cc1Cl is > 200 µM

---

Here, each record is paired with measured log10 IC50 data.
Test system: CEM cells HIV-1 protection, formazan growth assay
protocol summary: NCI AIDS Antiviral Assay
cond: measured here: growth of uninfected CEM cells
The figures below represent log10 of IC50, where IC50 is stated in µM.

Examples with answers:
| compound | measurement type | endpoint result |
| --- | --- | --- |
| Nc1ccc(C(=O)Nc2ccc(/C=C/c3ccc(NC(=O)c4ccc(N)cc4S(=O)(=O)O)cc3S(=O)(=O)O)c(S(=O)(=O)O)c2)c(S(=O)(=O)O)c1 | log10 IC50 | 1.95 |
| C=C1[C@@H]2CCC(C)(C)[C@H]1CCC(=O)[C@@H]2C(=O)OC | log10 IC50 | 2.40 |
| CC(C)OP(=O)(CCCCCCCCC/C=C/c1ccc2c(c1)OCCOCCOCCOCCO2)OC(C)C | log10 IC50 | 1.09 |
| C=C1CC(Cn2ccc(=O)[nH]c2=O)(c2ccc(OC)cc2)OC1=O (centres undefined) | log10 IC50 | 0.44 |
| COC1/C=C/OC2(C)Oc3c(C)c(O)c4c(O)c(cc(OCC(=O)N(C)C5CCCC5)c4c3C2=O)NC(=O)/C(C)=C/C=C/C(C)C(O)C(C)C(O)C(C)C(OC(C)=O)C1C (centres undefined) | log10 IC50 | 1.46 |

Value of log10 IC50 reported for the compound CC1=NC(=Cc2ccccc2O)C(=O)N1n1c(-c2ccccc2)nc2ccccc2c1=O is 1.10

Value of log10 IC50 reported for the compound CC(=O)N(C(C)=O)c1ncc(-n2nc(-c3ccccc3)cc2-c2ccccc2)c(-c2ccccc2)n1 is 2.06

Value of log10 IC50 reported for the compound CCC1(CC)C(=O)N(C(=O)c2cc(OC)c(OC)c(OC)c2)N(C(=O)c2cc(OC)c(OC)c(OC)c2)C1=O is 1.03

Value of log10 IC50 reported for the compound CC(=O)OC1COC(n2c3ccccc3c3ccc4c5ccccc5[nH]c4c32)C(OC(C)=O)C1OC(C)=O (centres undefined) is 2.06

Value of log10 IC50 reported for the compound CCOP(=O)(OCC)C(c1ccc(F)cc1)N(C(=O)NC(F)(F)F)c1cccc(C(F)(F)F)c1 (centres undefined) is 2.16

Value of log10 IC50 reported for the compound COc1ccc(OC)c(N=Nc2cc(OC)c(N=Nc3c(O)c4ccccc4[nH]c3=O)cc2Cc2ccccc2C(=O)O)c1 is 1.50

---

Here, each record is paired with measured pIC50 data.
Test system: CEM cells HIV-1 protection, formazan growth assay
protocol summary: NCI AIDS Antiviral Assay
cond: measured here: growth of uninfected CEM cells
The read-out pIC50 is expressed as -log10 of concentration in moles per litre.

Examples with answers:
| compound | endpoint result |
| --- | --- |
| CC(=O)O[C@H]1CCN2C(=O)C=CC(OCc3ccccc3)C12 (some centres not stated) | 3.10 |
| Cc1nc2ccccc2c(=O)n1-c1ccccc1Cl | 3.83 |
| O=P1(c2ccccc2)C(c2ccccc2)CCC1c1ccccc1 (configuration not stated) | 4.07 |

Let us examine a further case.
Record for CC[N+]1(C)CCC(O)(/C=C/c2ccc(Cl)cc2)C(C(=O)/C=C/c2ccc(Cl)cc2)C1 (configuration not stated) under target or system CEM cells HIV-1 protection, formazan growth assay: pIC50 reported as 5.53

---

System: CEM cells HIV-1 protection, formazan growth assay
protocol summary: NCI AIDS Antiviral Assay
The source made the active and inactive calls.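 Rule for the calls: active = compounds giving half or more protection of infected cells from virus-caused growth loss, again on retest; inactive = the rest.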
Write down the outcome that applies. Available outcomes: active, inactive

| compound | target | label class |
| --- | --- | --- |
| O=C(O)/C=C/C(=O)NCCCCCCNC(=O)/C=C/C(=O)O | CEM cells HIV-1 protection, formazan growth assay | inactive |
| CCOC(=O)C1(C(=O)OCC)CC1(C(=O)OCC)C(=O)OCC | CEM cells HIV-1 protection, formazan growth assay | inactive |
| [N-]=[N+]=Nc1c([N+](=O)[O-])c(=O)n2c3c(cccc13)CCC2 | CEM cells HIV-1 protection, formazan growth assay | inactive |

[ask] Identify the outcome logged in this assay for the compound shown: COc1ccc(S(=O)(=O)c2ccccc2[N+](=O)[O-])cc1
[reply] active

[ask] Identify the outcome logged in this assay for the compound shown: O=C(O)C1C2CC3CC2CC31 (stereo not given)
[reply] inactive

---

System: CEM cells HIV-1 protection, formazan growth assay
protocol summary: NCI AIDS Antiviral Assay
measurement type: EC50

| compound | EC50 |
| --- | --- |
| CCCOC(=O)NC(C)C(=O)NC(CCC(=O)NC(CCCC(N)C(=O)O)C(=O)NC(C)C(=O)O)C(=O)O (stereo not given) | > 50.1 µM |

Value of EC50 reported for the compound COc1ccc(-c2cc(-c3ccccc3)nc(N)c2-c2ccc3ccccc3c2)cc1 is > 200 µM

Value of EC50 reported for the compound O=C1/C(=C/c2ccccc2)CCCC/C1=C\c1ccccc1 is > 6.92 µM

Value of EC50 reported for the compound CC1(C)N/C(=C\C=O)C(C)(C)N1O is > 200 µM

Value of EC50 reported for the compound O=C1C2CC3OC3CC2C(=O)N1CCCCCCN1C(=O)C2CC3OC3CC2C1=O (stereo not given) is > 200 µM

---

Test system: CEM cells HIV-1 protection, formazan growth assay
protocol summary: NCI AIDS Antiviral Assay;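 active means compounds giving half or more protection of infected cells from virus-caused growth loss, again on retest; inactive means the rest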
Write down the outcome that applies. Available outcomes: active, inactive

| compound | label class |
| --- | --- |
| CCOC(=O)C(Cc1ccc2c(c1)CCC2)(Cc1ccc2c(c1)CCC2)C(=O)OCC | inactive |
| CC1=CC=C2c3ccccc3C=CN2C(=O)C1 | inactive |
| CSc1nc(C)cc(=O)n1C1OC(COC(C)=O)C(OC(C)=O)C(OC(C)=O)C1OC(C)=O (centres undefined) | inactive |
| COC(=O)c1cc2c(c(C(=O)OC)c1)CCC2 | inactive |
| CN(C)c1ccc(/C=c2\[nH]c(=O)/c(=C\c3ccc(N(C)C)cc3)[nH]c2=O)cc1 | inactive |

[ask] Identify the outcome logged in this assay for the compound shown: COC(=O)c1ccccc1/C=C1\Cc2c(ccc3c2CCC3)C1=O
[reply] inactive

[ask] Identify the outcome logged in this assay for the compound shown: Cc1nn(C(=O)c2ccccc2O)c2c1C(c1ccco1)SC(N)=N2 (centres undefined)
[reply] inactive

[ask] Identify the outcome logged in this assay for the compound shown: COC(=O)CCC(=O)C(CC(=O)OC)C(=O)CCC(=O)NCCc1ccccc1 (centres undefined)
[reply] inactive

[ask] Identify the outcome logged in this assay for the compound shown: O=C1OC(=O)c2c1c(-c1ccccc1)nc1ccccc21
[reply] inactive

[ask] Identify the outcome logged in this assay for the compound shown: Cc1ccc(S(=O)c2ccccc2[N+](=O)[O-])cc1 (centres undefined)
[reply] active

[ask] Identify the outcome logged in this assay for the compound shown: O=C(/C=C/c1ccccc1)/C=N/N1C(=S)N(c2ccccc2)C(=Nc2ccccc2)C1=Nc1ccccc1
[reply] inactive

[ask] Identify the outcome logged in this assay for the compound shown: COc1ccc2c(c1)CC[C@@H]1[C@@H]2CC[C@]2(C)[C@H](O)[C@H](O)C[C@@H]12
[reply] inactive

[ask] Identify the outcome logged in this assay for the compound shown: C=C1C(OC(C)=O)[C@@]23CC[C@@H]4C(C)(C(=O)OC)CCCC4(C)[C@@H]2CC[C@@H]1C3 (some centres undefined)
[reply] inactive

[ask] Identify the outcome logged in this assay for the compound shown: COC1(C)CCC(OS(C)(=O)=O)CO1 (centres undefined)
[reply] inactive

[ask] Identify the outcome logged in this assay for the compound shown: CCN(CC)CC(=O)Nc1ccc(C(=O)OCC(C)C)cc1
[reply] inactive
